assay: Solubility in 0.1 M phosphate buffer at pH 7.4 at 100 uM after 24 hrs by UV-TIC; assay type: physicochemical
Measured endpoint: solubility at 24 h, 100 µM (µM)
Numbers only here, please. The scale is µM.

Measured solubility at 24 h, 100 µM of CN(c1ccc(NC(=O)C(C)(O)C(F)(F)F)c(Cl)c1)S(=O)(=O)c1ccc(C#N)cc1 (stereo unspecified) : 61

###

target: Oxysterols receptor LXR-beta (Homo sapiens, UniProt P55055); test: Agonist activity at LXRbeta ligand binding domain by FRET based SRC1 recruitment assay
Sequence (P55055 whole entry, the tested form may be a part): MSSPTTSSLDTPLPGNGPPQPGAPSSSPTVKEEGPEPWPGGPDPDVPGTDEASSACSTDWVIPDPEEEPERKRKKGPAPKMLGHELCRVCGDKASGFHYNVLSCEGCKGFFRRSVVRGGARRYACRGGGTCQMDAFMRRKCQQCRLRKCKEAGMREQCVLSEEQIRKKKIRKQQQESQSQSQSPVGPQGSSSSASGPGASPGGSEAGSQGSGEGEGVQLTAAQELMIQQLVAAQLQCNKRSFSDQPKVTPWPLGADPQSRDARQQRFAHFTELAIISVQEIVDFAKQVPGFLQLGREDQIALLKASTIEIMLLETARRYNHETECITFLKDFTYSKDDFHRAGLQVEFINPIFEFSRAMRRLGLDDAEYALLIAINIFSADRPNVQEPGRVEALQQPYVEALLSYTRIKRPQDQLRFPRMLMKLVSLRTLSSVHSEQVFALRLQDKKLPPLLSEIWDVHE
Reported pEC50 by item:
Scale: pEC50 equals -log10([C]), with [C] in mol/L.

CC(O)(C(=O)Nc1ccc(N(CC2CC2)S(=O)(=O)c2ccccc2Cl)cc1Cl)C(F)(F)F (stereo not given): 6.03
Cc1ccc(S(=O)(=O)N(C)c2ccc(NC(=O)[C@](C)(O)C(F)(F)F)c(Cl)c2)cc1: 5.82
CCN(c1ccc(NC(=O)C(C)(O)C(F)(F)F)c(Cl)c1)S(=O)(=O)c1ccccc1Cl (stereo not given): 6.10
O=C(O)Cc1cccc(OCCCN(Cc2cccc(C(F)(F)F)c2Cl)CC(c2ccccc2)c2ccccc2)c1: 7.11

Here's the next entry for you.
Measured pEC50 of C=CCN(c1ccc(NC(=O)C(C)(O)C(F)(F)F)c(Cl)c1)S(=O)(=O)c1ccccc1Cl (stereo not given) : 6.24

###

Reported pEC50 by item:
biological target: Oxysterols receptor LXR-alpha (Homo sapiens, UniProt Q13133); experiment: Agonist activity at human LXRalpha expressed in human SH-SY5Y cells co-transfected with Gal4-LBD after 24 hrs by luciferase reporter gene assay; assay type: functional, cell-based
Sequence (Q13133 whole entry, the tested form may be a part): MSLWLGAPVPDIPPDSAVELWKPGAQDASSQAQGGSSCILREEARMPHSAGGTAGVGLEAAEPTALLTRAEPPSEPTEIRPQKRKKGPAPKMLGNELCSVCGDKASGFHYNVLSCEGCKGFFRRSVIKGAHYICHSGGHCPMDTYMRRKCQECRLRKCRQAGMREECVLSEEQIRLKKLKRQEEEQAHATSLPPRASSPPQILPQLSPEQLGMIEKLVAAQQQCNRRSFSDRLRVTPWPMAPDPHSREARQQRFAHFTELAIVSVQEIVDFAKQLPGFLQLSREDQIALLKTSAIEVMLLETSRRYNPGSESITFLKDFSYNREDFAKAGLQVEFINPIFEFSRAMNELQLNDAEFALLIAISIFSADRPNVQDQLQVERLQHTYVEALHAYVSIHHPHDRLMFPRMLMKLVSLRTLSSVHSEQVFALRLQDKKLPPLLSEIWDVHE
Scale: pEC50 equals -log10([C]), with [C] in mol/L.

CN(c1ccc(NC(=O)[C@](C)(O)C(F)(F)F)c(Cl)c1)S(=O)(=O)c1ccccc1Cl: 5.74
CN(c1ccc(NC(=O)[C@](C)(O)C(F)(F)F)c(Cl)c1)S(=O)(=O)c1ccccc1: 5.30
O=C(O)Cc1cccc(OCCCN(Cc2cccc(C(F)(F)F)c2Cl)CC(c2ccccc2)c2ccccc2)c1: 6.51

Here's the next entry for you.
Measured pEC50 of CCN(c1ccc(NC(=O)C(C)(O)C(F)(F)F)c(Cl)c1)S(=O)(=O)c1ccccc1Cl (stereo not given) : 5.07

###

assay: Bioavailability in rat; type: ADME, organism-based; conditions: in vivo
Measured endpoint: bioavailability (%)
Numbers only here, please. The scale is %.

Measured bioavailability of CN(c1ccc(NC(=O)C(C)(O)C(F)(F)F)c(Cl)c1)S(=O)(=O)c1ccc(C#N)cc1 (stereo unspecified) : 39

###

assay: Permeability across human Caco-2 cell membrane; type: ADME, cell-based; conditions: read-out: permeability
Measured endpoint: Papp (×10⁻⁶ cm/s)
Numbers only here, please. The scale is ×10⁻⁶ cm/s.

Measured Papp of CN(c1ccc(NC(=O)C(C)(O)C(F)(F)F)c(Cl)c1)S(=O)(=O)c1ccc(C#N)cc1 (stereo unspecified) : 28

###

target: Oxysterols receptor LXR-beta (Homo sapiens); assay: Agonist activity at LXRbeta ligand binding domain by FRET based SRC1 recruitment assay
Measured endpoint: pEC50
Scale: pEC50 equals -log10([C]), with [C] in mol/L.

CN(c1ccc(NC(=O)C(C)(O)C(F)(F)F)c(Cl)c1)S(=O)(=O)c1ccc(C#N)cc1 (centres undefined): 5.59
COC(=O)CCc1ccc(S(=O)(=O)N(C)c2ccc(NC(=O)C(C)(O)C(F)(F)F)c(Cl)c2)cc1 (centres undefined): 5.46
C[C@H](CC[C@@H]1OC1(C)C)[C@H]1CC[C@H]2[C@@H]3CC=C4C[C@@H](O)CC[C@]4(C)[C@H]3CC[C@]12C [24(S),25-EPOXYCHOLESTEROL]: 6.54
CN(c1ccc(NC(=O)[C@](C)(O)C(F)(F)F)c(Cl)c1)S(=O)(=O)c1ccccc1: 5.72
CN(c1ccc(NC(=O)[C@](C)(O)C(F)(F)F)c(Cl)c1)S(=O)(=O)c1ccccc1Cl: 6.20

Field pEC50 (Oxysterols receptor LXR-beta (Homo sapiens)), entry COC(=O)c1ccc(S(=O)(=O)N(C)c2ccc(NC(=O)C(C)(O)C(F)(F)F)c(Cl)c2)cc1 (centres undefined) : 5.63

Field pEC50 (Oxysterols receptor LXR-beta (Homo sapiens)), entry CC(O)(C(=O)Nc1ccc(N(Cc2ccccc2)S(=O)(=O)c2ccccc2Cl)cc1Cl)C(F)(F)F (centres undefined) : 6.06
